system: D2-like receptor (D2, D3, and D4); assay: [3H]spiperone binding assay, rat striatal; conditions: ratio of Ki values, rat brain preparation
Can you tell me Selectivity D2-like/D3 for the items I'm about to list?
Keep it simple and answer with nothing but the number.

# input Param readout = Selectivity D2-like/D3; param system = D2-like receptor (D2, D3, and D4); param query = CCCN(CC[C@]1(O)C[C@H](NC(=O)c2cccc(Cl)c2)C1)[C@H]1CCc2nc(N)sc2C1 (relative stereo) [Compound 13] ; response: value
# output 175

# input Hello, I am looking for reported Selectivity D2-like/D3 with D2-like receptor (D2, D3, and D4) for CCCN(CCC1(O)CC(NS(=O)(=O)c2ccc(OC)cc2)C1)[C@H]1CCc2nc(N)sc2C1 (stereo in doubt) [Compound 27] . Could you help?
# output 65

# input Hi! What's the reported Selectivity D2-like/D3 for CCCN(CCC1(O)CC(NS(=O)(=O)c2ccccc2)C1)[C@H]1CCc2nc(N)sc2C1 (stereo in doubt) [Compound 24] on D2-like receptor (D2, D3, and D4)?
# output 42

# input Observed Selectivity D2-like/D3 on D2-like receptor (D2, D3, and D4) for CCCN(CC[C@]1(O)C[C@@H](NC(=O)c2cccc(F)c2)C1)[C@H]1CCc2nc(N)sc2C1 (relative stereo) [Compound 16] , please.
# output 138

# input # returns recorded Selectivity D2-like/D3 (system: D2-like receptor (D2, D3, and D4)) for CCCN(CCC1(O)CC(NS(=O)(=O)c2cccc(F)c2)C1)[C@H]1CCc2nc(N)sc2C1 (stereo in doubt) [Compound 32]
# output 91

# input For the record CCCN(CCC1(O)CC(NS(=O)(=O)c2ccc(Cl)cc2)C1)[C@H]1CCc2nc(N)sc2C1 (stereo in doubt) [Compound 30] , what value of Selectivity D2-like/D3 is listed for D2-like receptor (D2, D3, and D4)?
# output 205

# input Give D2-like receptor (D2, D3, and D4) Selectivity D2-like/D3 for CCCN(CC[C@]1(O)C[C@@H](NS(=O)(=O)c2ccc(F)cc2)C1)[C@H]1CCc2nc(N)sc2C1 (relative stereo) [Compound 33]
# output 414

# input Record CCCN(CCC1(O)CC(NC(=O)c2ccccc2Cl)C1)[C@H]1CCc2nc(N)sc2C1 (stereo in doubt) [Compound 12] : what is its Selectivity D2-like/D3 with D2-like receptor (D2, D3, and D4)?
# output 117

# input For D2-like receptor (D2, D3, and D4), provide Selectivity D2-like/D3 of CCCN(CC[C@]1(O)C[C@@H](NS(=O)(=O)c2cccc(Cl)c2)C1)[C@H]1CCc2nc(N)sc2C1 (relative stereo) [Compound 29] please.
# output 28

# input Request: Selectivity D2-like/D3, test system D2-like receptor (D2, D3, and D4), entry CCCN(CCC1(O)CC(NS(=O)(=O)c2ccccc2F)C1)[C@H]1CCc2nc(N)sc2C1 (stereo in doubt) [Compound 31]
# output 614

# input Form entry - test system: D2-like receptor (D2, D3, and D4); read-out: Selectivity D2-like/D3; compound: CCCN(CCC1(O)CC(NS(=O)(=O)c2ccc(F)c(F)c2)C1)[C@H]1CCc2nc(N)sc2C1 (stereo in doubt) [Compound 35]
# output 19

# input # query: Selectivity D2-like/D3 | item CCCN(CCC1(O)CC(NS(=O)(=O)c2cccc(OC)c2)C1)[C@H]1CCc2nc(N)sc2C1 (stereo in doubt) [Compound 26] | system: D2-like receptor (D2, D3, and D4)
# output 98

# input Please tell me: Selectivity D2-like/D3 of CCCN(CCC1(O)CC(NC(=O)c2ccc(F)cc2)C1)[C@H]1CCc2nc(N)sc2C1 (stereo in doubt) [Compound 17] , system D2-like receptor (D2, D3, and D4)?
# output 412

----------
I'd appreciate it if you could supply Percentage remaining of compounds in human liver microsomes values for the items below.
format: in vitro ADME; conditions: 1 h
API: value field is a number in %; no unit string.

# input I'd like to know its Percentage remaining of compounds in human liver microsomes. The molecule in question is CCCN(CCC1(O)CC(NC(=O)c2ccc(OC)cc2)C1)[C@H]1CCc2nc(N)sc2C1 (stereo in doubt)
# output 76.7

# input I would be grateful if you could share the reported Percentage remaining of compounds in human liver microsomes for CCCN(CCC1(O)CC(NC(=O)c2ccc3ccccc3c2)C1)[C@H]1CCc2nc(N)sc2C1 (stereo partly shown) .
# output 2.1

# input Given the molecule CCCN(CC[C@]1(O)C[C@@H](NC(=O)c2cccc(-c3noc(C)n3)c2)C1)[C@H]1CCc2nc(N)sc2C1 (relative stereo) , what is its reported Percentage remaining of compounds in human liver microsomes?
# output 65.5

# input Consider the molecule CCCN(CC[C@]1(O)C[C@@H](NC(=O)c2cccc(OC)c2)C1)[C@H]1CCc2nc(N)sc2C1 (relative stereo) and give its measured Percentage remaining of compounds in human liver microsomes.
# output 74.1

----------
Please go through the items and note down their Percentage remaining of compounds in human liver microsomes.
format: in vitro ADME; conditions: 0.5 h

# input Can you look up the measured Percentage remaining of compounds in human liver microsomes of CCCN(CC[C@]1(O)C[C@@H](NC(=O)c2cccc(OC)c2)C1)[C@H]1CCc2nc(N)sc2C1 (relative stereo) for me?
# output 83.0%

# input Query (molecule): CCCN(CCC1(O)CC(NC(=O)c2ccc(OC)cc2)C1)[C@H]1CCc2nc(N)sc2C1 (stereo in doubt) ; field requested: Percentage remaining of compounds in human liver microsomes
# output 85.5%

# input Need Percentage remaining of compounds in human liver microsomes, item CCCN(CCC1(O)CC(NC(=O)c2ccc3ccccc3c2)C1)[C@H]1CCc2nc(N)sc2C1 (stereo partly shown)
# output 11.7%

# input Look up Percentage remaining of compounds in human liver microsomes: CCCN(CC[C@]1(O)C[C@@H](NC(=O)c2cccc(-c3noc(C)n3)c2)C1)[C@H]1CCc2nc(N)sc2C1 (relative stereo)
# output 90.0%

----------
system: D1-like receptor (D1 and D5); experiment: [3H]SCH 23390 binding assay, rat striatal membranes; conditions: ratio of Ki values, rat brain preparation
assayMetric: Selectivity D1-like/D3

# input So what does the record say about Selectivity D1-like/D3 for CCCN(CCC1(O)CC(NC(=O)c2ccc(F)cc2)C1)[C@H]1CCc2nc(N)sc2C1 (stereo in doubt) [Compound 17] ?
# output 56,180

# input // Selectivity D1-like/D3 lookup, key: CCCN(CC[C@]1(O)C[C@@H](NC(=O)c2cccc(OC)c2)C1)[C@H]1CCc2nc(N)sc2C1 (relative stereo) [Compound 21]
# output 84,474

# input Entry CCCN(CC[C@]1(O)C[C@H](NC(=O)c2cccc(Cl)c2)C1)[C@H]1CCc2nc(N)sc2C1 (relative stereo) [Compound 13] has what Selectivity D1-like/D3?
# output 49,482

# input I am curious: what Selectivity D1-like/D3 value has been reported for CCCN(CC[C@]1(O)C[C@@H](NC(=O)c2cccc(F)c2)C1)[C@H]1CCc2nc(N)sc2C1 (relative stereo) [Compound 16] ?
# output 29,789

# input For CCCN(CCC1(O)CC(NC(=O)c2ccc(Cl)cc2)C1)[C@H]1CCc2nc(N)sc2C1 (stereo in doubt) [Compound 14] , what is its reported Selectivity D1-like/D3?
# output 9,751

# input Looking for the measured Selectivity D1-like/D3 of CCCN(CCC1(O)CC(NS(=O)(=O)c2ccc(F)c(Cl)c2)C1)[C@H]1CCc2nc(N)sc2C1 (stereo in doubt) [Compound 34] , can you help?
# output 18,217

# input So what does the record say about Selectivity D1-like/D3 for CCCN(CCC1(O)CC(NC(=O)c2ccccc2Cl)C1)[C@H]1CCc2nc(N)sc2C1 (stereo in doubt) [Compound 12] ?
# output 80,161

# input Need Selectivity D1-like/D3 of CCCN(CCC1(O)CC(NS(=O)(=O)c2ccc(F)c(F)c2)C1)[C@H]1CCc2nc(N)sc2C1 (stereo in doubt) [Compound 35] , thanks.
# output 24,516

# input Recorded Selectivity D1-like/D3 of CCCN(CC[C@]1(O)C[C@@H](NS(=O)(=O)c2cccc(Cl)c2)C1)[C@H]1CCc2nc(N)sc2C1 (relative stereo) [Compound 29] , please.
# output 27,200

# input Look at this compound and give its reported Selectivity D1-like/D3. CCCN(CCC1(O)CC(NS(=O)(=O)c2cccc(OC)c2)C1)[C@H]1CCc2nc(N)sc2C1 (stereo in doubt) [Compound 26]
# output 22,812

# input Look up Selectivity D1-like/D3 for this compound: CCCN(CCC1(O)CC(NC(=O)c2ccccc2)C1)[C@H]1CCc2nc(N)sc2C1 (stereo in doubt) [Compound 11]
# output 2,662

# input # Selectivity D1-like/D3 lookup, item CCCN(CCC1(O)CC(NC(=O)c2ccc(OC)cc2)C1)[C@H]1CCc2nc(N)sc2C1 (stereo in doubt) [Compound 20]
# output 61,143

# input Data request, read-out Selectivity D1-like/D3, for CCCN(CC[C@]1(O)C[C@H](NS(=O)(=O)c2ccccc2OC)C1)[C@H]1CCc2nc(N)sc2C1 (relative stereo) [Compound 25]
# output 800
